assay: Crystalline and amorphous solubility of the active agent in SIF / gastric buffer; assay type: physicochemical; settings: gastric buffer (GB), simulated gastric fluid, thermodynamic from solid; crystalline; gastric buffer; read-out: crystalline solubility in gastric buffer (GB)
experimental.readout: solubility (µg/mL)
Numbers only, in µg/mL.

The reported solubility of the compound C#Cc1cccc(Nc2ncnc3cc(OCCOC)c(OCCOC)cc23)c1 was 182

* * *

experiment: Crystalline and amorphous solubility of the active agent in SIF / gastric buffer; assay type: physicochemical; conditions: 0.5% SIF (simulated intestinal fluid), fassgf or other biorelevant; amorphous; 0.5% SIF; read-out: amorphous solubility in 0.5% SIF
experimental.readout: solubility

The reported solubility of the molecule C#Cc1cccc(Nc2ncnc3cc(OCCOC)c(OCCOC)cc23)c1 [Erlotinib] was ~380 µg/mL

* * *

experiment: pKa (base) of the active agent; format: physicochemical
experimental.readout: pKa
Give bare numbers.

The reported pKa of the molecule C#Cc1cccc(Nc2ncnc3cc(OCCOC)c(OCCOC)cc23)c1 was 5.3
